experiment-notes: antivirals protecting cells from dengue CPE – CPE readout, HTS (AID 540333)
test-settings: Dengue virus CPE inhibition in host cells, at 20 µM; stronger effect = higher value
Out of some 10,000 compounds screened, about 320 (3.2%) were called active. This excerpt belongs to a sample that is enriched for actives.
reported-endpoint: CPE inhibition

Some entries whose results are on file:
[
  {
    "molecule": "Cc1ccc(C(c2nnnn2C2CCCC2)N2CCc3ccccc32)cc1 (centres undefined)",
    "result": "18.1% (active)"
  },
  {
    "molecule": "CCC(=O)N1N=C(c2ccc(C)o2)CC1c1ccc(Br)cc1 (centres undefined)",
    "result": "inactive"
  },
  {
    "molecule": "COc1ccc(NS(=O)(=O)c2ccc(C)c(NC(=O)NC3CCCCC3)c2)cc1",
    "result": "7.27% (active)"
  },
  {
    "molecule": "Cc1ccc(C(=O)NN2C(=O)C3C4c5ccccc5C(c5ccccc54)C3C2=O)cc1 (centres undefined)",
    "result": "1.93% (inactive)"
  },
  {
    "molecule": "CN(CC(=O)Nc1ccc(Cl)c(Cl)c1)C(=O)/C=C/c1ccc(F)cc1",
    "result": "0.95% (inactive)"
  },
  {
    "molecule": "Cc1cc(C)c(-c2csc(NC(=O)c3n[nH]c(=O)c4ccccc34)n2)c(C)c1",
    "result": "2.35% (inactive)"
  },
  {
    "molecule": "Cc1ccc(C)c(N(CC(=O)Nc2ccccc2C(=O)NCc2ccco2)S(=O)(=O)c2ccccc2)c1",
    "result": "0.06% (inactive)"
  },
  {
    "molecule": "Cc1ccc(-c2[nH]nc3c2C(C)C(C#N)=C(N)O3)cc1 (centres undefined)",
    "result": "inactive"
  },
  {
    "molecule": "Cc1ccc(C(=O)N/C(=C/c2ccco2)C(=O)NCCc2c[nH]c3ccccc23)cc1",
    "result": "0.17% (inactive)"
  },
  {
    "molecule": "Cc1ccc(CNC(=O)c2cc(-c3ccccc3)nn2CC2CC(c3cccnc3)=NO2)cc1 (centres undefined)",
    "result": "inactive"
  }
]

Look up CPE inhibition for this molecule: CC(C)Oc1cccc(C(=O)NC(=S)NCc2cccnc2)c1
2.73% (inactive)

Try this molecule next: COCCCNCCCCOc1ccc(Br)cc1C
inactive

Try this molecule next: O=C(CCC(=O)NCCCc1ccccc1)NCCCc1ccccc1
inactive

Try this molecule next: COc1ccc(NS(=O)(=O)c2ccc(OC)c(NC(=O)CCC3CCCCC3)c2)cc1
0.695% (inactive)

Try this molecule next: CCOc1cc2c3c(c1)C1(C(=O)N3C(C)(C)CC2C)C(C#N)=C(N)N2C(=C1C#N)Nc1ccccc12 (centres undefined)
2.12% (inactive)

Try this molecule next: COC(=O)c1cc(NC(=S)NCc2ccc(Cl)cc2)cc(C(=O)OC)c1
13.6% (active)

Try this molecule next: CC(=O)NN1C(=O)/C(=C/c2ccc(C(C)C)cc2)SC1=S
inactive

Try this molecule next: COC(=O)c1ccc(NC(=O)CSC2=NCCN2)cc1
0.235% (inactive)

Try this molecule next: CC(C)c1ccc(NC(=O)COc2ccc(F)cc2C(=O)c2cnn(-c3ccccc3)c2)cc1
1.51% (inactive)

Try this molecule next: CN(c1ccccc1)S(=O)(=O)c1ccc(Cl)c(C(=O)NCCc2c[nH]c3ccccc23)c1
2.39% (inactive)

Try this molecule next: CCCCNc1c(-c2cccc(-c3ccc(OC)cc3)c2)nc2cc(C)ccn12
inactive

Try this molecule next: CC(=O)Nc1ccc(OCC(O)CN2CCCCC2C)cc1 (centres undefined)
0.255% (inactive)

Try this molecule next: CCCCNc1c(-c2cccc(SC(C)CC)c2)nc2ccc(Cl)cn12 (centres undefined)
1.45% (inactive)

----------
experiment-notes: antivirals protecting cells from dengue CPE – CPE readout, HTS (AID 540333)
test-settings: Dengue virus CPE inhibition in host cells, at 20 µM
Among all 10,000 compounds or so, about 320 (3.2%) were called active. Rule as the data show it: active = CPE inhibition mostly above about 9.1% (no sharp cut-off); inactive = mostly below about 7.2%. The sample as a whole holds a higher share of actives than the screen did.
Please reply with one of these outcomes: 1 (active), 0 (inactive)

Known results for compounds:
[
  {
    "compound": "COc1cc(C2Nc3ccccc3C(=O)N2c2ccccc2)c(Br)cc1OCC(=O)O (stereo not given)",
    "assigned-category": 0
  },
  {
    "compound": "Cc1ccc(-c2nc(N)sc2CC(=O)OCC(=O)NC2CCCC(C)C2C)cc1 (stereo not given)",
    "assigned-category": 0
  },
  {
    "compound": "CC(C)(C)OC(=O)N1CCC(NC(=O)c2ncn(Cc3ccccc3)c2C(=O)NC2CCN(C(=O)OC(C)(C)C)CC2)CC1",
    "assigned-category": 1
  },
  {
    "compound": "O=C(Nc1ccc(Cl)c([N+](=O)[O-])c1)c1ccncc1",
    "assigned-category": 0
  },
  {
    "compound": "CCOc1cc(/C=N/NC(=O)CSc2nncn2C)ccc1OC(=O)c1ccc(Cl)cc1",
    "assigned-category": 0
  },
  {
    "compound": "COc1cccc(/C=C(/C(=O)OCC(=O)NC2CCCC(C)C2C)c2ccccc2)c1 (stereo not given)",
    "assigned-category": 1
  },
  {
    "compound": "CC1CCCC(NC(=O)COC(=O)c2cccc(NS(=O)(=O)/C=C/c3ccccc3)c2)C1C (stereo not given)",
    "assigned-category": 0
  },
  {
    "compound": "Cn1c(C=O)c(C#CC(C)(C)O)c2ccccc21",
    "assigned-category": 0
  }
]

Which outcome did this test record for the compound C[C@@H](NC(=O)c1nc[nH]c1C(=O)OCc1ccccc1)c1ccccc1 ?
0

Try this compound next: Cn1c(C=O)c(C#Cc2ccccc2)c2ccccc21
0

----------
experiment-notes: antivirals protecting cells from dengue CPE – CPE readout, HTS (AID 540333)
test-settings: Dengue virus CPE inhibition in host cells, at 20 µM
The campaign covered roughly 10,000 compounds. About 320 (3.2%) were called active. Cut-off read from the data, not from the text of the source: active = CPE inhibition mostly above about 9.1% (no sharp cut-off); inactive = mostly below about 7.2%. For the sample, actives were picked, then their nearest neighbours and some compounds at random.
Please reply with one of these outcomes: true (1) = active, false (0) = inactive

Known results for compounds:
[
  {
    "compound": "Cc1cccc(C)c1NC1=C(Cl)C(=O)OC1OC(C)C (centres undefined)",
    "assigned-category": "false (0)"
  },
  {
    "compound": "CCOC(=O)[C@H]1[C@H]2COc3ccccc3[C@@H]2N2C(=O)c3cc(Cl)ccc3NC(=O)[C@@]12C",
    "assigned-category": "false (0)"
  },
  {
    "compound": "CCOC(=O)[C@H]1[C@H]2COc3ccccc3[C@@H]2N2C(=O)c3cc(C)ccc3NC(=O)[C@@]12C",
    "assigned-category": "false (0)"
  },
  {
    "compound": "CCN1C(=O)[C@H]2[C@@H](c3ccc(-c4ccc(Cl)c(Cl)c4)cc3)N3CCCC[C@@]3(C(=O)OC)[C@H]2C1=O",
    "assigned-category": "true (1)"
  },
  {
    "compound": "O=C(COc1ccc2c(-c3ccccc3)cc(=O)oc2c1)NCc1cccs1",
    "assigned-category": "false (0)"
  },
  {
    "compound": "Cc1ccc(/C=N/n2c(C)cc(C)c(C#N)c2=O)o1",
    "assigned-category": "false (0)"
  },
  {
    "compound": "CCN1C(=O)[C@@H]2[C@@H](c3ccc(-c4ccc(Cl)c(Cl)c4)cc3)N3CCC[C@@]3(C(=O)OC)[C@@H]2C1=O",
    "assigned-category": "false (0)"
  },
  {
    "compound": "CCN1C(=O)[C@@H]2[C@@H](c3ccc(-c4ccc(OC)cc4)cc3)N3CCC[C@@]3(C(=O)OC)[C@@H]2C1=O",
    "assigned-category": "false (0)"
  },
  {
    "compound": "COc1ccc(CCC(=O)OCC(=O)Nc2ccc(C)c(S(=O)(=O)N(C)C)c2)cc1",
    "assigned-category": "false (0)"
  },
  {
    "compound": "CCCCCCSc1ccc([C@@H]2[C@@H]3C(=O)N(CC)C(=O)[C@@H]3[C@]3(C(=O)OC)CCCCN23)cc1",
    "assigned-category": "true (1)"
  }
]

Which outcome did this test record for the compound CCOCC(O)CNc1ccccc1 (centres undefined) ?
false (0)

Try this compound next: Cc1ccc(NC(=O)CCNC(=O)c2ccccc2Cl)cc1S(=O)(=O)N(C)C
false (0)

----------
experiment-notes: antivirals protecting cells from dengue CPE – CPE readout, HTS (AID 540333)
test-settings: Dengue virus CPE inhibition in host cells, at 20 µM
In all, about 10,000 compounds went through this assay and about 320 (3.2%) were called active. Cut-off read from the data, not from the text of the source: active = CPE inhibition mostly above about 9.1% (no sharp cut-off); inactive = mostly below about 7.2%. Shown is part of a subset that was picked to be rich in actives.
Please reply with one of these outcomes: Yes for active, No for inactive

Known results for compounds:
[
  {
    "compound": "COc1ccc(CCN=C(N)NS(=O)(=O)c2ccc3ccccc3c2)cc1",
    "assigned-category": "No"
  },
  {
    "compound": "Cn1cc(C(=O)N2CCc3ccccc32)cn1",
    "assigned-category": "No"
  },
  {
    "compound": "O=C1[C@@H]2[C@@H]3C[C@@H]([C@H]4ON=C(c5ccc(Cl)cc5)[C@@H]34)[C@@H]2C(=O)N1C1CCCCC1",
    "assigned-category": "No"
  },
  {
    "compound": "COc1cc(/C=C2\\C(=O)N(c3ccccc3)N=C2C)ccc1Oc1ccc([N+](=O)[O-])cc1[N+](=O)[O-]",
    "assigned-category": "Yes"
  },
  {
    "compound": "CCC(C)NC(=O)Cn1c(COc2ccc(Cl)cc2Cl)nc2ccccc21 (configuration not stated)",
    "assigned-category": "Yes"
  },
  {
    "compound": "O=C(Cn1c(COc2ccc(Cl)cc2)nc2ccccc21)NCC(F)(F)F",
    "assigned-category": "No"
  },
  {
    "compound": "COC(=O)c1sc2nc(C)cc(-c3ccccc3)c2c1N",
    "assigned-category": "No"
  },
  {
    "compound": "CCOC(=O)C(=CNc1ccc(NC2=NCC(C)S2)cc1)C(=O)OCC (configuration not stated)",
    "assigned-category": "Yes"
  },
  {
    "compound": "CC(=O)N1CCC2(CC1)CC(=O)c1cc(Cl)ccc1O2",
    "assigned-category": "No"
  },
  {
    "compound": "CCOC(=O)C(=O)NNc1ccc(C)cc1",
    "assigned-category": "No"
  }
]

Next compound, please.
Which outcome did this test record for the compound CC1=NN(c2ccccc2)C(=O)/C1=C/c1ccc[nH]1 ?
No
